B1: library; numbered along this chain (parent)
chain: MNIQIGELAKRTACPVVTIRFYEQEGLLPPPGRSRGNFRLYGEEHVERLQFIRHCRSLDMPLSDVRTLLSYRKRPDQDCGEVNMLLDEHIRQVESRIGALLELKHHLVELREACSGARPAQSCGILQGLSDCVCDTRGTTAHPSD

Variants of: B1
measurement.notes: sfGFP reporter fluorescence (15 h) (µM FITC); higher = higher leak
condition.info: library round: Round 1; ligand: none
# Lookup of reported sfGFP reporter fluorescence keyed by entry

Example entries begin here.
* D131A P143L | 0.0721
* D131L D135S | 0.0691
* D64K E112F | 0.0699
* D131A D135A P143A | 0.0687
* P61N L68F I90T | 0.0702

Tell me the measured sfGFP reporter fluorescence of D131A D135P P143W , please.
0.0718

Tell me the measured sfGFP reporter fluorescence of C55L M60L P61N D64K , please.
0.071

meta.source: the supplement of paper PMC12783771
